test: Tissue distribution of TET after a single i.t. administration in normal and LPS-treated mice; conditions: BALB/c, mouse, heart, inhaled or intranasal, 15 mg/kg, AUC(0-∞), normal mice; 15 mg/kg i.t.
property-label: AUC(0-inf)

cpd-smiles	property-label	readout-value
COc1ccc2cc1Oc1ccc(cc1)C[C@H]1c3cc(c(OC)cc3CCN1C)Oc1c(OC)c(OC)cc3c1[C@H](C2)N(C)CC3	AUC(0-inf)	1410 µg·h/mL

---

experiment: Tissue distribution of TET after a single i.t. administration in normal and LPS-treated mice; settings: BALB/c, mouse, kidney, other: intratracheal (i.t.), 15 mg/kg, Kp (AUC in tissue divided by AUC in blood), normal mice; 15 mg/kg i.t.; kidney

molecule	Kp
COc1ccc2cc1Oc1ccc(cc1)C[C@H]1c3cc(c(OC)cc3CCN1C)Oc1c(OC)c(OC)cc3c1[C@H](C2)N(C)CC3 [TET, Tetrandrine]	37.5
